Readings of t1/2 for the listed binders
Molecular target: T1, monkey GFRα3 expressed with a C-terminal myc-myc-hexahistidine tag (monkey (Mf), UniProt O60609 32-374 (human entry), limits assumed)
T1 construct: also called MfGFRα3-mmh; MfGFRα3-mmH
T1 chain: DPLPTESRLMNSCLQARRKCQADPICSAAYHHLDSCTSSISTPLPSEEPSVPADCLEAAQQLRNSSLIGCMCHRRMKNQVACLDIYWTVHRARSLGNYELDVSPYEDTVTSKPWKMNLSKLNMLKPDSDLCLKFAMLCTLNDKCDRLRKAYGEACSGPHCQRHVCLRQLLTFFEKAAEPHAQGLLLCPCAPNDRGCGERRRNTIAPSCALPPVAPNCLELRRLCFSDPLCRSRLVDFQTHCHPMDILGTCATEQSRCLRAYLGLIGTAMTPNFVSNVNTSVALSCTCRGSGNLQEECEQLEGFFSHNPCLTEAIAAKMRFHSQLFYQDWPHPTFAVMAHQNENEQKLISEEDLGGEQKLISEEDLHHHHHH
Experiment: SPR, Ab captured, 37C
Express it in min; write the number only.

QUERY: // t1/2 lookup, key: H4H2354S (antibody, human IgG4, V domains shown, human IgG4 Fc (H4H); also called H4H2354S-1) VH: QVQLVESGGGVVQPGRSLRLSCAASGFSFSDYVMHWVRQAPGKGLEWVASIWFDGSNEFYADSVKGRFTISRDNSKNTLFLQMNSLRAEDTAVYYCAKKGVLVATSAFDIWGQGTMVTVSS VL: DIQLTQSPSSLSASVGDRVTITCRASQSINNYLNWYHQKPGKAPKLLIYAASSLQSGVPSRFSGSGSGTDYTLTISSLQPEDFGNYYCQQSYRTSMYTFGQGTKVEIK
RESULT: 27

QUERY: // t1/2 lookup, key: H4H2292S (antibody, human IgG4, V domains shown, human IgG4 Fc (H4H)) VH: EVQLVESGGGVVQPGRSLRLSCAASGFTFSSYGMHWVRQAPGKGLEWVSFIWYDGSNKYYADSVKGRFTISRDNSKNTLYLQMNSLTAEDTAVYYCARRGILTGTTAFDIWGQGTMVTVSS VL: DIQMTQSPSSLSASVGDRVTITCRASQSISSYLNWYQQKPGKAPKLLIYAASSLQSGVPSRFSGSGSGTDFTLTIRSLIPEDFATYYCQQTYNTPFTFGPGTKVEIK
RESULT: 59

QUERY: // t1/2 lookup, key: H4H2357S (antibody, human IgG4, V domains shown, human IgG4 Fc (H4H)) VH: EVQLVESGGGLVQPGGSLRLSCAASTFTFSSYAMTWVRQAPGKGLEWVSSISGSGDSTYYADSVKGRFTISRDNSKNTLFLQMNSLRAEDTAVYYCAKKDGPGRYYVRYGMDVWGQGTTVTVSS VL: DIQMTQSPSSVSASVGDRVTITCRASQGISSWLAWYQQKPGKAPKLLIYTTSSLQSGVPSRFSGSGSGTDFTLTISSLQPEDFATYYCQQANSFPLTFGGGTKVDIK
RESULT: 9
